measured target: MAO-A (Amine oxidase [flavin-containing] A) (Rattus norvegicus, UniProt P21396)
Sequence (P21396 whole entry): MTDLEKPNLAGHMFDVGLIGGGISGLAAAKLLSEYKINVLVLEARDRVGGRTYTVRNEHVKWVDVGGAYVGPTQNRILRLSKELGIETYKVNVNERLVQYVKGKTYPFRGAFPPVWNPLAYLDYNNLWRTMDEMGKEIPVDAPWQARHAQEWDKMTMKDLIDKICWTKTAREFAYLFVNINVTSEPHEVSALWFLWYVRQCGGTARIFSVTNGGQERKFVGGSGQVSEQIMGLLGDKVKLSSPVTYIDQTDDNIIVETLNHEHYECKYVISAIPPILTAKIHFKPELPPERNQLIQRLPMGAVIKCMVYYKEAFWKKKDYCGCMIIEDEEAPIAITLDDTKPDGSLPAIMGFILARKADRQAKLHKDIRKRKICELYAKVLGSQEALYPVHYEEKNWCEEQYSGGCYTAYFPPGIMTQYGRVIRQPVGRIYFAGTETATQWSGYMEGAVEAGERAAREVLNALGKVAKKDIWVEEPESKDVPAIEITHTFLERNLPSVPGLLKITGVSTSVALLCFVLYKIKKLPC
protocol description: MAO-A_ANTAG Eurofins SafetyScreen44 (BI)
Parameters: scale not given: the % may be the effect or the level left
condition context: compound concentration 10 uM, read-out: % Ctrl
experimental readout: activity at 10 µM

{"columns": ["smiles text", "measured target", "activity at 10 µM"],
 "data": [
  ["C[C@@H]1C[C@H](C)CN(c2ncc(Cl)c(Nc3ccc4c(c3)cc(OC(C)(C)C(=O)O)c(=O)n4C)n2)C1", "MAO-A (Amine oxidase [flavin-containing] A) (Rattus norvegicus, UniProt P21396)", "96% (not active)"]
]}

Just so you know, measured activity at 10 µM for CNC(=O)COc1cc2cc(Nc3nc(N4C[C@H](C)C[C@H](C)C4)ncc3Cl)ccc2n(C)c1=O came out at 89% (not active)

Value source: ChEMBL document CHEMBL5303763
